Target: human vasopressin V1a receptor (Homo sapiens, UniProt P37288)
Sequence (P37288 whole entry): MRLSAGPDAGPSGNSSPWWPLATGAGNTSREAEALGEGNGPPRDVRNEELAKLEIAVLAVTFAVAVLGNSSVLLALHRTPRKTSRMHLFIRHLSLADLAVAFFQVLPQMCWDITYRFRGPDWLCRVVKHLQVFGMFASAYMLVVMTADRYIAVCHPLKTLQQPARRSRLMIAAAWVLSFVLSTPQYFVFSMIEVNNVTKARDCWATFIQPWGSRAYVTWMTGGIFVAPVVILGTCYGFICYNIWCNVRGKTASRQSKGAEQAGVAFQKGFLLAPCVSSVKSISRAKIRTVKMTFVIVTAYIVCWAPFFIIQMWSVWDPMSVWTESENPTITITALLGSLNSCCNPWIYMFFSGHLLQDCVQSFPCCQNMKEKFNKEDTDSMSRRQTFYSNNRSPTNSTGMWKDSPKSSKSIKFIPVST
Test: Functional assay on human vasopressin V1a receptor expressing cell line (intracellular Ca2+ fluorescence)
Assay type: cell-based
Settings: 1321N1 cells, (Arg8)-vasopressin at EC80; read-out: IC50 (nM) on hV1a cell line
Structures can show the parent of a compound that is named as a salt.
readout_kind: IC50 (nM)

Answered cases to consult:
1) COC1Cc2cc(Cl)ccc2-n2c(nnc2[C@H]2CCN(Cc3cccnc3)C2)C1 (stereo partly shown) = 152
2) CCO[C@]1(CC)CC[C@@H](c2nnc3n2-c2ccc(Cl)cc2CC(NC(C)C)C3)CC1 (stereo partly shown) = 263
3) CN(C)C1Cc2cc(C(F)(F)F)ccc2-n2c(nnc2[C@H]2CC[C@H](Oc3ccccn3)CC2)C1 (stereo partly shown) = 160
4) CC(C)(C)[Si](C)(C)OC1Cc2cc(Cl)ccc2-n2c(nnc2[C@H]2CC[C@H](Oc3ccccn3)CC2)C1 (stereo partly shown) = 60
5) OC1Cc2cc(Cl)ccc2-n2c(nnc2N2CCC(Oc3ccccn3)CC2)C1 (stereo not shown) = 1.8
6) CO[C@]1(C)CC[C@@H](c2nnc3n2-c2ccc(Cl)cc2CC2(C3)OCCO2)CC1 = 0.9

(P) O=C(OC1Cc2cc(Cl)ccc2-n2c(nnc2[C@H]2CC[C@H](Oc3ccccn3)CC2)C1)C1CC(F)(F)C1 (stereo partly shown)
(Q) COC1Cc2ccccc2-n2c(nnc2[C@H]2CC[C@H](Oc3ccccn3)CC2)C1 (stereo partly shown)
(R) CC(C)N1CC[C@]2(CC[C@@H](c3nnc4n3-c3ccc(Cl)cc3CC3(C4)OCCO3)CC2)C1=O
(S) CC(C)N[C@H]1Cc2cc(Cl)ccc2-n2c(nnc2[C@H]2CC[C@H](Oc3ccccn3)CC2)C1
(T) NC1Cc2cc(C(F)(F)F)ccc2-n2c(nnc2[C@H]2CC[C@H](Oc3ccccn3)CC2)C1 (stereo partly shown) [Example 34, hydrochloride]
[in] Rank entries according to their IC50, from the largest number down. Quick reminder: the answer is the labels in the order asked.
[out] T, S, P, Q, R
(T: 700 nM, S: 23 nM, P: 5.5 nM, Q: 2.7 nM, R: 0.8 nM)

(I) CCOC1Cc2cc(Cl)ccc2-n2c(nnc2[C@H]2CC[C@H](Oc3ccccn3)CC2)C1 (stereo partly shown)
(II) O=C(N[C@@H]1Cc2cc(Cl)ccc2-n2c(nnc2[C@H]2CC[C@H](Oc3ccccn3)CC2)C1)C1CCC(F)(F)CC1
[in] Between item I and item II , which reported IC50 is smaller? Provide the label of your selected option as the answer.
[out] I

---

Biological target: mouse V1a receptor (Mus musculus, UniProt Q62463)
Sequence (Q62463 whole entry): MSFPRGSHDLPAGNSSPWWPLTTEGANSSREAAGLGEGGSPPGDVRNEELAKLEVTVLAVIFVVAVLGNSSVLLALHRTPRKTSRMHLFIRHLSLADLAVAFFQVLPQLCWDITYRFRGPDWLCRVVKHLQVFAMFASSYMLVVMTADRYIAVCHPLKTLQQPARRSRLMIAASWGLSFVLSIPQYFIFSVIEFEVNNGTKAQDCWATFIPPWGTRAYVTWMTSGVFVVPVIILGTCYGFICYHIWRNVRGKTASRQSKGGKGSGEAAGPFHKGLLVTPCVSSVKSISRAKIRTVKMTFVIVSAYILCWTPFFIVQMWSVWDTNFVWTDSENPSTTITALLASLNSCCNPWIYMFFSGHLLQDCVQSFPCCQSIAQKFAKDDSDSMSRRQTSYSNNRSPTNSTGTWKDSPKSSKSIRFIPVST
Assay: Functional V1a in vivo test: inhibition of oxytocin-induced scratching behaviour
Settings: mice, 10 mg/kg p.o. pretreatment
readout_kind: inhibition (%) of oxytocin-induced scratching behaviour response

1) Clc1ccc2c(c1)CC(NC1CCOCC1)Cc1nnc([C@H]3CC[C@H](Oc4ccccn4)CC3)n1-2 (some centres unmarked) = 89
2) Clc1ccc2c(c1)CC1(Cc3nnc([C@H]4CC[C@H](Oc5ccccn5)CC4)n3-2)OCCO1 = 118
3) N#Cc1ccc2c(c1)CC1(Cc3nnc([C@H]4CC[C@H](Oc5ccccn5)CC4)n3-2)OCCO1 = 76
4) CCNC1Cc2cc(Cl)ccc2-n2c(nnc2[C@H]2CC[C@H](Oc3ccccn3)CC2)C1 (some centres unmarked) = 75
5) CO[C@]1(C)CC[C@@H](c2nnc3n2-c2ccc(Cl)cc2CC2(C3)OCCCO2)CC1 = 65
6) FC(F)(F)[C@H]1CC[C@H](c2nnc3n2-c2ccc(Cl)cc2CC2(C3)OCCCO2)CC1 = 50

(P) CO[C@]1(C)CC[C@H](c2nnc3n2-c2ccc(Cl)cc2CC2(C3)OCCCO2)CC1
(Q) CN(C)[C@@H]1Cc2cc(Cl)ccc2-n2c(nnc2[C@H]2CC[C@H](Oc3ccccn3)CC2)C1
[in] From the recorded data, which exceeds the other in inhibition (%) of oxytocin-induced scratching behaviour response: P or Q ? Provide the label of your selected option as the answer.
[out] Q

---

Target: human vasopressin V1a receptor (Homo sapiens)
Assay: Functional assay on human vasopressin V1a receptor expressing cell line (intracellular Ca2+ fluorescence)
Type: cell-based
Settings: 1321N1 cells, (Arg8)-vasopressin at EC80; read-out: IC50 (nM) on hV1a cell line
readout_kind: IC50 (nM)

Answered cases to consult:
1. Clc1ccc2c(c1)CC(NC1COC1)Cc1nnc([C@H]3CC[C@H](Oc4ccccn4)CC3)n1-2 (some centres unmarked) [Example 28] = 5.4
2. N#Cc1ccc2c(c1)CC1(Cc3nnc([C@H]4CC[C@H](C(=O)N5CCCCC5)CC4)n3-2)OCCO1 [Example 90] = 152
3. CC(C)NC1Cc2cc(Br)ccc2-n2c(nnc2[C@H]2CC[C@H](Oc3ccccn3)CC2)C1 (some centres unmarked) [Example 40] = 8.4

(a) CCNC1Cc2cc(Cl)ccc2-n2c(nnc2[C@H]2CC[C@H](Oc3ccccn3)CC2)C1 (some centres unmarked) [Example 23]
(b) CC(C)NC1Cc2cc(Cl)ccc2-n2c(nnc2[C@H]2CC[C@H](C(F)(F)F)CC2)C1 (some centres unmarked) [Example 44]
(c) O=C(N[C@H]1Cc2cc(Cl)ccc2-n2c(nnc2[C@H]2CC[C@H](Oc3ccccn3)CC2)C1)C1CCOCC1 [Example 151]
(d) CN(C)CC(=O)NC1Cc2cc(Cl)ccc2-n2c(nnc2[C@H]2CC[C@H](Oc3ccccn3)CC2)C1 (some centres unmarked) [Example 17]
[in] Rank entries according to their IC50, from the largest number down. Quick reminder: the answer is the labels in the order asked.
[out] b, c, d, a

---

Target: UniProt P37288
Assay: Functional assay on human vasopressin V1a receptor expressing cell line (intracellular Ca2+ fluorescence)
Type: cell-based
Details: 1321N1 cells, (Arg8)-vasopressin at EC80; read-out: IC50 (nM) on hV1a cell line
readout_kind: IC50 (nM)

(a) COC1Cc2cc(Cl)ccc2-n2c(nnc2N2CCN(c3ncccc3Cl)CC2)C1 (stereo not shown)
(b) CN(C)S(=O)(=O)NC1Cc2cc(Cl)ccc2-n2c(nnc2[C@H]2CC[C@H](Oc3ccccn3)CC2)C1 (stereo partly shown)
(c) COC1Cc2cc(Cl)ccc2-n2c(nnc2N2CCN(c3ccccn3)CC2)C1 (stereo not shown)
(d) CC(=O)NC1Cc2cc(Cl)ccc2-n2c(nnc2C2CCN(c3ccccn3)CC2)C1 (stereo not shown)
[in] Rank items: key IC50, increasing. Quick reminder: the answer is the labels in the order asked.
[out] b, a, c, d

---

Target: human vasopressin V1a receptor (Homo sapiens, UniProt P37288)
Test: Functional assay on human vasopressin V1a receptor expressing cell line (intracellular Ca2+ fluorescence)
Format: cell-based
Conditions: 1321N1 cells, (Arg8)-vasopressin at EC80; read-out: IC50 (nM) on hV1a cell line
Procedure: Functional Assay to Test Compounds on Human Vasopressin V1a Receptor Expressing Cell Line The ordinary secondary messenger pathway of the measured GPCR receptor was used, the endogenous Gq-associated system. Using 30,000 cells/plate, compounds were measured on 96-well plates. […] The materials to be measured were administered in 15 to 20 minutes pretreatment, at least two parallels of each compound in each concentration was measured. […] The total AVP concentration-response curve was recorded on each plate. […]
readout_kind: IC50 (nM)

1) O=C(N[C@H]1Cc2cc(Cl)ccc2-n2c(nnc2[C@H]2CC[C@H](Oc3ccccn3)CC2)C1)C1CC(F)(F)C1 [Example 210] = 292
2) CC(C)(C)OC(=O)NCCN[C@@H]1Cc2cc(Cl)ccc2-n2c(nnc2[C@H]2CC[C@H](Oc3ccccn3)CC2)C1 [Example 228] = 6.1
3) CC(C)(C)CN[C@H]1Cc2cc(Cl)ccc2-n2c(nnc2[C@H]2CC[C@H](Oc3ccccn3)CC2)C1 [Example 165] = 21
4) O[C@H]1Cc2cc(Cl)ccc2-n2c(nnc2[C@H]2CC[C@H](Oc3ccccn3)CC2)C1 [Example 56] = 1.2

(1) O=C(N[C@H]1Cc2cc(Cl)ccc2-n2c(nnc2[C@H]2CC[C@H](Oc3ccccn3)CC2)C1)C1CCC1 [Example 121]
(2) CC1(C(=O)N[C@@H]2Cc3cc(Cl)ccc3-n3c(nnc3[C@H]3CC[C@H](Oc4ccccn4)CC3)C2)COC1 [Example 226]
(3) CCO[C@]1(C)CC[C@@H](c2nnc3n2-c2ccc(Cl)cc2CC2(C3)OCCO2)CC1 [Example 237]
[in] Rank entries according to their IC50, from the largest number down. Quick reminder: the answer is the labels in the order asked.
[out] 1, 2, 3
(1: 442 nM, 2: 4.2 nM, 3: 1.5 nM)

---

Molecular target: human vasopressin V1a receptor (Homo sapiens)
Experiment: Human vasopressin V1a receptor binding assay
Conditions: 1321N1 cell membranes, [3H]vasopressin; read-out: Ki (nM) on hV1a cell line
readout_kind: Ki (nM)

Answered cases to consult:
1. CN(C1Cc2cc(Cl)ccc2-n2c(nnc2[C@H]2CC[C@H](Oc3ccccn3)CC2)C1)S(C)(=O)=O (stereo partly shown) = 0.4
2. O=C([C@H]1CC[C@H](c2nnc3n2-c2ccc(Cl)cc2CC2(C3)OCCO2)CC1)N1CCCC1 = 0.4

(I) FC(F)(F)[C@H]1CC[C@H](c2nnc3n2-c2ccc(Cl)cc2CC2(C3)OCCCO2)CC1
(II) COC1Cc2cc(Cl)ccc2-n2c(nnc2C2CCN([C@H]3CCOC3)CC2)C1 (stereo partly shown)
[in] From the recorded data, which exceeds the other in Ki: I or II ? Provide the label of your selected option as the answer.
[out] II
(II: 50.5 nM, I: 0.4 nM)
